Molecular target: D(1B) dopamine receptor (Homo sapiens)
Sequence (P21918 whole entry): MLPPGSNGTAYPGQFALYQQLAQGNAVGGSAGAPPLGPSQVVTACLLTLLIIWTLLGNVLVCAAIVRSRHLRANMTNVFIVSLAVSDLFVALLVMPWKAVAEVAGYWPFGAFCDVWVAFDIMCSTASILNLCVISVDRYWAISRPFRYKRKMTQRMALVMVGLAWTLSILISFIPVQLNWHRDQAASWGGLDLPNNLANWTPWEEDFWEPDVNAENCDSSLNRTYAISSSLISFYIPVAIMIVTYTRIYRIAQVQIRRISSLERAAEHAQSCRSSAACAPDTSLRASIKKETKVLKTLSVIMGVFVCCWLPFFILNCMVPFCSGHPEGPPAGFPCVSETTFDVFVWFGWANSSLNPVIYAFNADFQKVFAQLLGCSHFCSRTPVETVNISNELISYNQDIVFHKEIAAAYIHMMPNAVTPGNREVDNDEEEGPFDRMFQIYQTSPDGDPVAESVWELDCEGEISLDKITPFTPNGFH
Assay: Displacement of [3H]-SCH23390 from recombinant human D5 receptor transiently expressed in HEKT cell membranes measured after 90 mins by microbeta scintillation counting method
Readings of pKi for the listed compounds
Lab note: report pKi as minus log10 of the concentration in molar units, number only.

COMPOUND: CCOc1ccc(F)cc1C1CC1CNCCCSc1nnc(-c2ccccc2)n1C (centres undefined)
VAL: 6.23
--
COMPOUND: CCCN(CCCCNC(=O)c1ccc2ccccc2c1)CC1CC1c1cc(F)ccc1OC (centres undefined)
VAL: 5.66
--
COMPOUND: CCCN(CCCCNC(=O)c1ccc2ccccc2c1)CC1CC1c1cccc(Cl)c1Cl (racemic)
VAL: 5.40

Shift focus to the following entry.
Q: Look at this compound and give its reported pKi. CCCN(CCCCNC(=O)c1cc2ccccc2[nH]1)CC1CC1c1ccc(Cl)cc1 (centres undefined)
Result: 5.03

Entry source: ChEMBL document CHEMBL4402598
